tested on: Platelets (Human); assay: Platelet aggregation in platelet-rich plasma from healthy human donors; assay type: cell-based; conditions: Table 1; read-out: EC50 Platelets (Human) Aggregation
MEASUREMENT LABEL: EC50

MOLECULE: CCCCC[C@H](O)/C=C/[C@@H]1[C@@H](C/C=C\CCCCO)[C@@H]2C[C@H]1OC(=O)O2 [Example 4]
MEASUREMENT LABEL: EC50
READING: > 10 µM
--
MOLECULE: CCCCCC(O)/C=C/C1C2CC(OC(=O)O2)C1C/C=C\CCCC(=O)O (stereo not drawn) [Example 7]
MEASUREMENT LABEL: EC50
READING: 0.024 µM
--
MOLECULE: CCCCCC(O)/C=C/C1C2CC(OC(=O)O2)C1C/C=C\CCCC(N)=O (stereo not drawn) [Example 15]
MEASUREMENT LABEL: EC50
READING: 3.11 µM

These measurements were taken from patent US20030109571A1.
